# system: Peroxisome proliferator-activated receptor alpha (Homo sapiens) (UniProt Q07869)
# Sequence (Q07869 whole entry, the tested form may be a part): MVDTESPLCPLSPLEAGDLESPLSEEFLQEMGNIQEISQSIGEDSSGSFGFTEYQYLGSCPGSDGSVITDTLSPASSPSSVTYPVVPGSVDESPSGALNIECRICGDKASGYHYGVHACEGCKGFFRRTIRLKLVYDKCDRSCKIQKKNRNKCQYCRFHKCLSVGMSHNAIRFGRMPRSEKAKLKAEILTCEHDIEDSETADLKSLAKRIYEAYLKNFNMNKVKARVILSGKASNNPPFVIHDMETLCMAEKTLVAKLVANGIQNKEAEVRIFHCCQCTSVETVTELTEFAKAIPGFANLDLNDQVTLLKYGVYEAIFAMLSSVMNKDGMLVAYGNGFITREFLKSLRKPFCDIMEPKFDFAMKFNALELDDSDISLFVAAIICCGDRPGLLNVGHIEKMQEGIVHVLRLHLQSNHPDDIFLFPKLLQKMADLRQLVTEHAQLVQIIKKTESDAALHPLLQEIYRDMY
# assay.text: Agonist activity at Gal4-tagged human PPARalpha expressed in HEK293 cells at 3 to 30 uM incubated for 16 to 20 hrs by luciferase and beta-galactosidase activity based reporter gene assay
# Format: cell-based
Active and inactive are the calls of the source. The rule behind the calls is not given here.
reported.endpoint: Activity

CCCCCCCC[Si](CCCC)(CCCC)CCCCCCCC(=O)NCCO :: inactive
CCCCCCCCCCCCCCCCCC(=O)NCCO :: inactive
CCCCCCCC[Si](C)(C)CCCCCCCC(=O)NCCO :: Active
CCCCCCCC/C=C\CCCCCCCC(=O)NCCO :: Active
CCCCCCCC[Si](CC)(CC)CCCCCCCC(=O)NCCO :: Active

query: Give Peroxisome proliferator-activated receptor alpha (Homo sapiens) (UniProt Q07869) Activity for CCCCCCC[Si](CC)(CC)CCCCCCCC(=O)NCCO
result: inactive

query: Return Activity measured with Peroxisome proliferator-activated receptor alpha (Homo sapiens) (UniProt Q07869) given this compound: CCCCCCCC[Si](CC)(CC)CCCCCCC(=O)NCCO
result: inactive

query: Checklist item: Activity tested on Peroxisome proliferator-activated receptor alpha (Homo sapiens) (UniProt Q07869), entry CCCCCCCC[Si](CCC)(CCC)CCCCCCCC(=O)NCCO , value?
result: Active

meta.source: ChEMBL document CHEMBL3600336
